Test system: HOP-62 NSCLC
method.summary: NCI-60 one-dose screen, 48 h (100 = growth as untreated, 0 = no growth, -100 = all killed)
measurement.context: 10 µM unless noted
Method: Growth inhibition of the HOP-62 human Non-Small Cell Lung tumor cell line is measured as a screen for anti-cancer activity. Cells are grown in 96 well plates and exposed to the test compound for 48 hours. Compounds are tested at a single concentration, which is 10^-5 M for most compounds. The reported endpoint is percent growth (GI% or GIPRCNT), where numbers from 0 - 100% represent growth inhibition, and numbers from -100% - 0 represent cell death. […]
This is part of a sample that, as a whole, favours compounds with a hit. Of some 83,000 tested, about 20% had one in any assay.
recorded.endpoint: growth (%)
Entry rule: numbers only, all in %.

Prompt line: Read the entry COc1ccc(-c2nc(SCCC(C)C)nc(N/N=C\c3cccc([N+](=O)[O-])c3)c2C#N)cc1 and write its reported growth.
Response line: 17.7

Prompt line: Read the entry COc1cc(C2CC(c3cc(OC)c(OCCCOc4ccc(-n5c(/C=C/c6ccccc6)nc6ccccc6c5=O)cc4)c(OC)c3)=NO2)cc(OC)c1OC (centres undefined) and write its reported growth.
Response line: 122

Prompt line: Read the entry Cc1ccc(N(C(=O)CCc2c[nH]c3ccccc23)[C@H](C(=O)Nc2ccc(Cl)cc2)c2cccc([N+](=O)[O-])c2)cc1 and write its reported growth.
Response line: 68

Prompt line: Read the entry Cc1ccc(-c2cc(-c3cccnc3)[nH]c(=O)c2C#N)cc1 and write its reported growth.
Response line: 107

Prompt line: Read the entry COC(=O)c1ccc(CSc2nnc(-c3c(C)nc4ccc(C)cn34)o2)cc1 and write its reported growth.
Response line: 89.6

Prompt line: Read the entry O=C(CSc1nccc(Nc2ccc(S(=O)(=O)Nc3nccs3)cc2)n1)c1ccc(F)cc1 and write its reported growth.
Response line: 106

Prompt line: Read the entry COc1ccc(-c2nc3c(N)c(CO)c(C)nc3o2)cc1 and write its reported growth.
Response line: 90.3

Prompt line: Read the entry COc1cc(N=Nc2ccc(N)cc2)c(OC)cc1N=Nc1ccccc1.[Cl][Zn][Cl] and write its reported growth.
Response line: 86.5

Prompt line: Read the entry O=C(COc1ccc(/C=C2\Oc3ccccc3C2=O)cc1)c1ccc(Cl)cc1 and write its reported growth.
Response line: 91.1

----------
System: MOLT-4 leukemia
method.summary: NCI-60 one-dose screen, 48 h (100 = growth as untreated, 0 = no growth, -100 = all killed)
measurement.context: 10 µM unless noted
Compounds without any hit were thinned out: in the full panel of roughly 83,000, 20% have a hit.
Lab note: anything with growth at or over 90% counts as satisfied; the rest go in not satisfied.

Prompt line: Is growth at least 90%? Consider COc1cc(N2C(=O)c3nccnc3C2=O)cc(OC)c1OC
Response line: satisfied

Prompt line: Is growth at least 90%? Consider NC[C@H](O)c1ccc(O)c(O)c1
Response line: satisfied

Prompt line: Is growth at least 90%? Consider COc1ccc2[nH]c(O)c(C(=Nc3ccc(N(C)C(=O)CN4CCN(C)CC4)cc3)c3ccccc3)c2c1
Response line: not satisfied

Prompt line: Is growth at least 90%? Consider C=CC(=O)Nc1cccc(Oc2nccc(Nc3nnc(C4CC4)s3)n2)c1
Response line: not satisfied

Prompt line: Is growth at least 90%? Consider O=C(NCCc1ccc(O)c(O)c1)C12CC3CC(CC(C3)C1)C2
Response line: not satisfied

Prompt line: Is growth at least 90%? Consider CCN(CC)c1ccc2nc3c4ccccc4c(=NC(=O)c4ccccc4-c4c5ccc(N(CC)CC)cc5[o+]c5cc(N(CC)CC)ccc45)cc-3oc2c1
Response line: not satisfied

Prompt line: Is growth at least 90%? Consider CCN(CC)CCCC(C)Nc1c2ccc(Cl)cc2nc2ccc(O)cc12 (stereo not given)
Response line: not satisfied

Prompt line: Is growth at least 90%? Consider CCCCCCCCCCCC(c1ccccc1)[N+](C)(C)C (stereo not given)
Response line: not satisfied

Prompt line: Is growth at least 90%? Consider O=c1c2cc(F)ccc2sc2c(NCCN3CCCCC3)nc3ccccc3c12
Response line: not satisfied

Prompt line: Is growth at least 90%? Consider CNC(=O)NCC1OC(n2cnc3c(NC(=O)Nc4ccccc4)ncnc32)C(O[Si](C)(C)C(C)(C)C)C1CC(=O)N(C)OC (stereo not given)
Response line: not satisfied

Prompt line: Is growth at least 90%? Consider CC(C)=C[C@@H]1c2c(c3ccccc3n(C)c2=O)O[C@H]2c3c(c4ccccc4n(C)c3=O)OC(C)(C)[C@@H]12
Response line: not satisfied

Prompt line: Is growth at least 90%? Consider COc1cc(C2CC(c3ccc(Nc4ccnc5cc(Cl)ccc45)cc3)=NN2C=O)cc(OC)c1OC (stereo not given)
Response line: not satisfied

Prompt line: Is growth at least 90%? Consider Cc1ccc(-c2cc3c(cc2O)C2CCCCC2(N2CCOCC2)O3)cc1 (stereo not given)
Response line: not satisfied

Prompt line: Is growth at least 90%? Consider COc1ccc(-c2csc(C3=C(O)CN(CCCN4CCCC4=O)C3=N)n2)cc1OC
Response line: not satisfied

Prompt line: Is growth at least 90%? Consider CC1(C)CC(=O)C2=C(C1)N(c1ccc(OC(F)(F)F)cc1)C(N)=C(C#N)C2c1ccc(Cl)cc1 (stereo not given)
Response line: satisfied

Prompt line: Is growth at least 90%? Consider O=C(N/N=C/c1ccncc1)c1ccc(C(F)(F)F)nc1Nc1cccc(C(F)(F)F)c1
Response line: not satisfied

Prompt line: Is growth at least 90%? Consider CCCCCCCCn1ccc2cc(NC(=O)Cn3cc(CN4CCCC4)nn3)ccc21
Response line: not satisfied

Prompt line: Is growth at least 90%? Consider CCN(CC)CCN1CC(O)=C(c2nc(-c3ccc(Cl)cc3)cs2)C1=N
Response line: not satisfied

Prompt line: Is growth at least 90%? Consider Cc1ccc(N2CCN(C(=S)c3cccs3)CC2)cc1
Response line: satisfied

Prompt line: Is growth at least 90%? Consider COCN1CCC2N(COC)CCC3N(COC)CCC1N23 (stereo not given)
Response line: satisfied

Prompt line: Is growth at least 90%? Consider Nc1ccc2c(c1)c(N)nn2C(=O)Nc1ccc(Cc2ccccc2)cc1
Response line: not satisfied

Prompt line: Is growth at least 90%? Consider CCOP(=O)(OCC)C1CP(=O)(c2ccccc2)CC(C)=C1Cl (stereo not given)
Response line: satisfied

Prompt line: Is growth at least 90%? Consider c1csc(-c2c3ccc(=[N+]4CCCCC4)cc-3oc3cc(N4CCCCC4)ccc23)c1
Response line: not satisfied

Prompt line: Is growth at least 90%? Consider Cc1ccc(CCC(=O)Nc2ncc(Cc3cc(Cl)ccc3Cl)s2)o1
Response line: not satisfied

Prompt line: Is growth at least 90%? Consider CNS(=O)(=O)c1n[nH]nc1-c1cc(C(C)(C)C)c(O)c(C(C)(C)C)c1
Response line: satisfied

Prompt line: Is growth at least 90%? Consider Cc1ccc(S(=O)(=O)N/N=C\c2cc(Cl)ccc2O)cc1
Response line: satisfied

Prompt line: Is growth at least 90%? Consider COc1ccc(-c2nc3ccc4[nH]ncc4c3c3c2CCCC3)cc1B(O)O
Response line: not satisfied

Prompt line: Is growth at least 90%? Consider CC/C=C\C[C@H](O)C/C=C1/C(=O)C=C[C@@H]1C/C=C\CCCCO
Response line: not satisfied

Prompt line: Is growth at least 90%? Consider COc1ccc(C2=Nc3c(N)ncnc3NC(c3ccc4c(c3)OCO4)C2)cc1 (stereo not given)
Response line: satisfied

Prompt line: Is growth at least 90%? Consider Cc1ccc(-c2c(-c3ccccc3)c(=O)oc3ccc(C)cc23)cc1
Response line: not satisfied

Prompt line: Is growth at least 90%? Consider COc1ccc(CNC(=O)C(O)C(Cc2ccccc2)NC(=O)c2[nH]c3ccccc3c(=O)c2C)cc1OC (stereo not given)
Response line: satisfied

Prompt line: Is growth at least 90%? Consider CCN1C(=O)N(CC)C2Nn3c(s/c(=C4\C(=O)N(C)c5ccccc54)c3=O)=NC21 (stereo not given)
Response line: not satisfied

Prompt line: Is growth at least 90%? Consider COc1ccc(-c2cc(-c3ccc(Nc4nc(Nc5ccc(Cl)cc5)nc(Nc5ccc(Cl)cc5)n4)cc3)nc(N)c2C#N)cc1
Response line: not satisfied

Prompt line: Is growth at least 90%? Consider COc1ccc(Nc2nnc(SCc3ccccc3F)s2)cc1
Response line: satisfied

Prompt line: Is growth at least 90%? Consider O=[N+]([O-])c1ccc(-c2cc(-c3ccc(Nc4nc(Nc5ccc(Cl)cc5)nc(Nc5ccc(Cl)cc5)n4)cc3)no2)cc1
Response line: not satisfied

Prompt line: Is growth at least 90%? Consider NC(N)=NN=C(c1ccccc1)c1ccccc1
Response line: not satisfied

Prompt line: Is growth at least 90%? Consider Cc1c(C(=O)OC(=NC2CCCCC2)NC2CCCCC2)sc2c1c(=O)nc1c(C#N)n[nH]n12
Response line: satisfied

Prompt line: Is growth at least 90%? Consider O=c1c2c3c(sc2n2c(-c4cc(-c5ccccc5)nn4-c4ccccc4)nnc2n1Cc1ccccc1)CCCC3
Response line: not satisfied

Prompt line: Is growth at least 90%? Consider O=c1cc(-c2ccc(Cl)cc2)[nH]c2ccccc12
Response line: satisfied
